# assayedTarget: Ecm22 (UniProt Q05958)
# Sequence: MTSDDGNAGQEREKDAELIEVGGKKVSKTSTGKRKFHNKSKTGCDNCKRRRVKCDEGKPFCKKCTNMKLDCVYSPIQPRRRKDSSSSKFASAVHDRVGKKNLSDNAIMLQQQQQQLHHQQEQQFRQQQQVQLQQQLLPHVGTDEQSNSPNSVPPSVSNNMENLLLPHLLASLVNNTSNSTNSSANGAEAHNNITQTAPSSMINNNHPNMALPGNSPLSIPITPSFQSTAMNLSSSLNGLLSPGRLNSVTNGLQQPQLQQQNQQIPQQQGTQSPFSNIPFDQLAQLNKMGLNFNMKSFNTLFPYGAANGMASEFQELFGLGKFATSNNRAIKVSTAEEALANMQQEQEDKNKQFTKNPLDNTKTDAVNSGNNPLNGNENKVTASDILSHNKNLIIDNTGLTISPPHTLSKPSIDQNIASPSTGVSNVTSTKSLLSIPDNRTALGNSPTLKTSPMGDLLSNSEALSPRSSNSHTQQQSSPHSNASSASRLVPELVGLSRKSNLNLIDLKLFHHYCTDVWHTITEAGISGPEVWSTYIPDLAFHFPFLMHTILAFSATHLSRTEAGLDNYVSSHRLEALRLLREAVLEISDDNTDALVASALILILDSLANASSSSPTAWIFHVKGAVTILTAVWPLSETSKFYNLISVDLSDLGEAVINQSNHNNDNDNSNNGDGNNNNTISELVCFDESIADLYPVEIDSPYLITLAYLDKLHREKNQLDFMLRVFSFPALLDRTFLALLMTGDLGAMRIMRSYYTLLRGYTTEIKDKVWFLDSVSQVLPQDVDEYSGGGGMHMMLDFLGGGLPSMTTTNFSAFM
# assayRemarks: PBM E-score (8-mer binding enrichment) (E-score (-0.5 to 0.5)); higher = stronger / more preferred TF binding
# assayConditions: protein concentration: 200 nM; construct: GST-full length
Whole data set: some 33,000 sequences, median “E-score (-0.5 to 0.5)” near -0.041, cut for the highest 2% near 0.37. Many of the other results were omitted from the sample, so the highest values are more common in it than they were.
Binary classification by PBM E-score, with 0.2 as an inclusive lower bound for True; all other cases are False.

primarySequence | classLabel
AAATTGAA | False
ACCGTATC | True
GGCGTAAC | False
ATCGTAAC | True
TCACCAAA | False
GCCGGTAC | False
CACGACGC | False
GCCGTAGA | True
CGCGTAAG | False

====

# assayedTarget: Ecm22 (UniProt Q05958)
# Sequence: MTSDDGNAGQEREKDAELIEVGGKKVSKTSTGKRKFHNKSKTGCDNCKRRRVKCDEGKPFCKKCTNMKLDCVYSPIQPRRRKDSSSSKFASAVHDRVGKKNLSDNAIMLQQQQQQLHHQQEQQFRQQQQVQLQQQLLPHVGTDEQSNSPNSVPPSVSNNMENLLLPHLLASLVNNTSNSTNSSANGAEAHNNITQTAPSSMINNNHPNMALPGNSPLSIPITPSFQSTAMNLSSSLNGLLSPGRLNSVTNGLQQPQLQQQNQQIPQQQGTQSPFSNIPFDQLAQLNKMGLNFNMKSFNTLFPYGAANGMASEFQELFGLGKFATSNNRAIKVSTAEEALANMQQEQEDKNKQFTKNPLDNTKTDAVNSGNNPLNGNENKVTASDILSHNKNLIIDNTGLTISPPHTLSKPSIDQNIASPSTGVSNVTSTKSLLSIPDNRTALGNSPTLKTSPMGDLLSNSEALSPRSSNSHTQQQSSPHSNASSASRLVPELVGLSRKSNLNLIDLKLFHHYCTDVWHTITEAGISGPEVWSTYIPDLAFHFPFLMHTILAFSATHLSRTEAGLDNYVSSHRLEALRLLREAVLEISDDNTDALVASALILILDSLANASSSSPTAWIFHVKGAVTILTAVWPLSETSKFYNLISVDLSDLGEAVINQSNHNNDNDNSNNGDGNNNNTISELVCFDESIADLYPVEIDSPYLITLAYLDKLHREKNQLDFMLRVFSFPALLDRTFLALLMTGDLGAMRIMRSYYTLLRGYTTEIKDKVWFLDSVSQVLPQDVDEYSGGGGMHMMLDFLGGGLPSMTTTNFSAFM
# assayRemarks: PBM E-score (8-mer binding enrichment) (E-score (-0.5 to 0.5)); higher = stronger / more preferred TF binding
# assayConditions: protein concentration: 200 nM; construct: GST-full length
Whole data set: some 33,000 sequences, median “E-score (-0.5 to 0.5)” near -0.041, cut for the highest 2% near 0.37. The sample as a whole holds a higher share of the highest values than the screen did.

primarySequence | PBM E-score
AAATAGCT | -0.0997
ACGGATAA | 0.159
GCGCGACC | 0.173
GTCGGTCA | 0.258
CATATAAG | 0.0284
CGTATAAC | 0.473
GGGAGAAA | -0.141
CCGTATCC | 0.337
ATGTATAA | 0.0604
CGTATCAA | 0.386
CACGAAAC | 0.147
AATCGCCC | -0.0815
TCGGATAA | 0.372
TGTATCAA | -0.0485
ATCATACC | 0.00527
AGTATAAC | 0.0917
TCACGTAA | 0.00322
CGGCGTAG | -0.00106
AGTGGAGA | -0.128
ACCAGCTA | -0.0229
CTCTTAAC | 0.0664
GCTCGTCA | 0.0115
ACCGAAAT | 0.15
AGCTAACA | -0.248
CATAAACA | -0.0236
TTCTTAAA | -0.107
ACCGTCGC | 0.278
AAGTATAT | 0.0727
TGTATAAA | 0.172
ACTCGTAG | 0.34
AGGTCTAT | 0.0387
AACGGGCT | 0.16
GAAGTCGC | 0.108
CACTGGGG | -0.267
AACGAAAC | 0.389
AGATCCGG | -0.0497
ATTTGGCC | -0.258
GTTCGTTA | 0.356
CCTCGTAA | 0.446
TCTCGTCA | 0.0737
CACGGTTA | 0.0472
CTGTATAC | 0.207
CCTCGTGA | 0.201
TCTCGTAA | 0.438
GGTACTGA | -0.0769
CGCATACC | 0.16
TTAATAAA | 0.169
GTGTATAA | -0.026
ACCCTACG | -0.142
CTTCGTTC | 0.47
AGAGACAT | -0.195
CAAGCCGA | 0.0727
ATCGGTTA | 0.362
CTCCGTTA | 0.0433
GACTTTTA | -0.222
ACTCGTAA | 0.437
AGGAACCG | 0.0955
CTTCGTTA | 0.303
CGCATACA | 0.111
ATCAAGGG | -0.149
AACATACT | 0.0945
CGGTTCGC | 0.151
CTTGTGAA | -0.226
GTCGGTTA | 0.369
AGTGTTGA | -0.109
GCGTAAAA | 0.217
ACACTCCT | -0.163
ACGGTTGA | 0.0702
ACGAGTCA | 0.219
ATAGCCCC | -0.223
AGTATAAA | 0.241
AACGAAAA | 0.364
ACGGGGCA | 0.114
CAAGCCGC | -0.0639
TTCAAGAA | 0.0932
CGCGGATA | 0.188
TCTATGCA | -0.148
AACGAAAG | 0.399
ACGAGTCG | 0.384
ACTCCGGC | 0.0584
CTCGGTTC | 0.265
AGGAGCGA | 0.328
ACCGAGCC | 0.245
AACGAGGG | 0.439

====

Some sequences, each annotated with its measured PBM E-score.
# assayedTarget: Ecm22 (UniProt Q05958)
# Sequence: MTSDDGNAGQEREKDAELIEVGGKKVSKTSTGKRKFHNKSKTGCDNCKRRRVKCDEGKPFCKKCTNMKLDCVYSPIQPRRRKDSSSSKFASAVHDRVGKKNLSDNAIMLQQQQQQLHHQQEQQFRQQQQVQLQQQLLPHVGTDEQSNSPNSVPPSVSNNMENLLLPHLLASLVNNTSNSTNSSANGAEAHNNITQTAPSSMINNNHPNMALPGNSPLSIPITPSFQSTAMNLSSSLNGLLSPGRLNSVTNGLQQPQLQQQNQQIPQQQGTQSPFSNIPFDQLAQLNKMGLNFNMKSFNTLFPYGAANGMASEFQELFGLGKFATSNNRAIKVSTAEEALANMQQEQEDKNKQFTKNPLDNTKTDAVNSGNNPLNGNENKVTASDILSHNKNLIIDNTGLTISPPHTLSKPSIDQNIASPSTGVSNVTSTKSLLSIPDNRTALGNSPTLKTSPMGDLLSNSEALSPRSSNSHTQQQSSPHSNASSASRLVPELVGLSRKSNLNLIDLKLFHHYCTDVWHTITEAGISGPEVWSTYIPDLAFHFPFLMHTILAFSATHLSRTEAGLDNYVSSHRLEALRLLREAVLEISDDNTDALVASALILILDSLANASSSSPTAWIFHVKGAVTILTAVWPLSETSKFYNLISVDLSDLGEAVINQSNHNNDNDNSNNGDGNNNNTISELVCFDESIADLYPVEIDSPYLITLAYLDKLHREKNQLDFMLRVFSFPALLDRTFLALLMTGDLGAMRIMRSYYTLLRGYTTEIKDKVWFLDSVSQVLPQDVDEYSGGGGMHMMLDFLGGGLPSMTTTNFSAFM
# assayRemarks: PBM E-score (8-mer binding enrichment) (E-score (-0.5 to 0.5)); higher = stronger / more preferred TF binding
# assayConditions: protein concentration: 200 nM; construct: GST-full length
Whole data set: some 33,000 sequences, median “E-score (-0.5 to 0.5)” near -0.041, cut for the highest 2% near 0.37. Shown is part of a subset that was picked to be rich in the highest values.

primarySequence | assayedTarget | PBM E-score
CGCGTATA | Ecm22 (UniProt Q05958) | 0.403
CCGAACCA | Ecm22 (UniProt Q05958) | -0.0831
TGAAGTCA | Ecm22 (UniProt Q05958) | -0.133
GGCCTCCC | Ecm22 (UniProt Q05958) | -0.0791
CACGACAA | Ecm22 (UniProt Q05958) | 0.09
TCACGACA | Ecm22 (UniProt Q05958) | 0.00255
ACGAACCA | Ecm22 (UniProt Q05958) | 0.391
GCGAAGCA | Ecm22 (UniProt Q05958) | 0.0616
AGCGTGGG | Ecm22 (UniProt Q05958) | -0.0957
AACGTATA | Ecm22 (UniProt Q05958) | 0.411
CCGAACCG | Ecm22 (UniProt Q05958) | 0.12
TACGTACA | Ecm22 (UniProt Q05958) | 0.328
AGCGTATA | Ecm22 (UniProt Q05958) | 0.366
AACGTATC | Ecm22 (UniProt Q05958) | 0.127
AACGACAT | Ecm22 (UniProt Q05958) | 0.434
ACGAAGCG | Ecm22 (UniProt Q05958) | 0.317
AGATAGGG | Ecm22 (UniProt Q05958) | -0.127
CCCTTCCA | Ecm22 (UniProt Q05958) | -0.32
AAACGACA | Ecm22 (UniProt Q05958) | 0.467
AGGTCCCC | Ecm22 (UniProt Q05958) | -0.33
TGGACCAA | Ecm22 (UniProt Q05958) | -0.206
ATCCAAGC | Ecm22 (UniProt Q05958) | -0.231
AATTTGCT | Ecm22 (UniProt Q05958) | -0.0782
GATTTGAC | Ecm22 (UniProt Q05958) | 0.202
CACCTTAC | Ecm22 (UniProt Q05958) | -0.0784
ATCTGCGG | Ecm22 (UniProt Q05958) | -0.00985
ACGAAGCA | Ecm22 (UniProt Q05958) | 0.378
AGCGACAT | Ecm22 (UniProt Q05958) | 0.214
ATAGGTTC | Ecm22 (UniProt Q05958) | 0.00586
ATCGAGAG | Ecm22 (UniProt Q05958) | 0.0766
TACGTATA | Ecm22 (UniProt Q05958) | 0.401
ACGAACCG | Ecm22 (UniProt Q05958) | 0.368
GGCGTATA | Ecm22 (UniProt Q05958) | 0.359
ACACGGTA | Ecm22 (UniProt Q05958) | 0.108
GCACGGTA | Ecm22 (UniProt Q05958) | -0.0289
AGCTCAGG | Ecm22 (UniProt Q05958) | -0.211
ACCAATGA | Ecm22 (UniProt Q05958) | -0.061
CACGTATA | Ecm22 (UniProt Q05958) | 0.386
AAGAACCC | Ecm22 (UniProt Q05958) | -0.0304
AGGGCGCG | Ecm22 (UniProt Q05958) | -0.0881
CACGACAG | Ecm22 (UniProt Q05958) | 0.0642
ACGAACCC | Ecm22 (UniProt Q05958) | 0.28

Provenance of the data: the supplement of paper PMC3334620
